All figures here come from ChEMBL document CHEMBL1201862.

biological target: Tumor necrosis factor (Homo sapiens); test: analog potency on TNFa NF-kB signaling – cell-based, revised, SAR follow-up (AID 2337); type: functional
Sequence (P01375 whole entry): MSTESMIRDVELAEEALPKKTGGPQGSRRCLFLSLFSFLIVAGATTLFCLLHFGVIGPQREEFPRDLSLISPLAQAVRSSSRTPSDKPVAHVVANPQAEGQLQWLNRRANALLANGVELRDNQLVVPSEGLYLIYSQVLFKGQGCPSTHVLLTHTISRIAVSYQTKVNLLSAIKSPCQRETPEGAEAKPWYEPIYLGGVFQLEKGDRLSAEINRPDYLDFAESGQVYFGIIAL
Activity calls are given as the source filed them.
Outcome codes: active, inactive

# Structure string, Cat
rows = [
    ("Cc1oc(-c2cc(F)ccc2F)nc1CN1CCN(c2ncnc3ccccc23)CC1", "active"),
    ("CN(C)c1ccc(NC(=O)c2ccc(CN3CCc4ccccc43)cc2)cc1", "active"),
    ("CCC(=O)Nc1nc2ccccc2n1Cc1ccccc1Cl", "inactive"),
    ("CN(Cc1cccnc1)C(=O)c1cc(COc2ccc3ncccc3c2)on1", "active"),
]

====

target: Rac GTPase-activating protein 1 (Homo sapiens, UniProt Q9H0H5); test: blockers of MgcRacGAP-driven Rac1 GTP hydrolysis – biochemical, ADP Hunter fluorescence, primary and confirmatory, confirmation (AID 624330); type: functional
Sequence (Q9H0H5 whole entry): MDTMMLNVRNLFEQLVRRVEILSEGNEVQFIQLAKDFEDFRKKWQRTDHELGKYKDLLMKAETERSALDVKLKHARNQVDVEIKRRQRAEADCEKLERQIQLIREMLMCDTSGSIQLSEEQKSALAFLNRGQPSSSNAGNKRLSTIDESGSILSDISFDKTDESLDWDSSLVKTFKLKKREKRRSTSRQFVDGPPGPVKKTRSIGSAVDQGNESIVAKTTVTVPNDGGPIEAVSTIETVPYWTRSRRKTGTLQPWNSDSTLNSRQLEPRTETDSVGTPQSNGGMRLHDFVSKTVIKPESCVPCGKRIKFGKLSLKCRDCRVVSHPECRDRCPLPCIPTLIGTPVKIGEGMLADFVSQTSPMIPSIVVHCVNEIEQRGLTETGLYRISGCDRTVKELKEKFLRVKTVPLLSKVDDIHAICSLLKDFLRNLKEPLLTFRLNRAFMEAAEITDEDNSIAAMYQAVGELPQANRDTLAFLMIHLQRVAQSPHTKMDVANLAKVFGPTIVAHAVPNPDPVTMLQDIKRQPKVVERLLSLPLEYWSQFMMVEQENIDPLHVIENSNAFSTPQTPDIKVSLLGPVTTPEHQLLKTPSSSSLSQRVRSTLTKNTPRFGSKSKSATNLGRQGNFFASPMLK
Active and inactive are the calls of the source.
Measured IC50, listed per entry.

# Compound, IC50
records = [
    ("Oc1ccccc1/C=N/n1c(S)nnc1-c1ccccc1", "82.2 µM (active)"),
    ("CC1=NN(c2cccc(C(=O)O)c2)C(=O)/C1=C\\C=C\\c1ccco1", "66.7 µM (active)"),
    ("O=C1ON=C(c2ccccc2)/C1=C/c1ccc(O)c(O)c1", "60 µM (active)"),
    ("COc1cccc2cc(C(=O)Oc3ccc(NC(C)=O)cc3)c(=O)oc12", "34.9 µM (active)"),
    ("Clc1cccc(-c2ccc(/C=N/c3ccc(N4CCOCC4)cc3)o2)c1Cl", "14.5 µM (active)"),
    ("Oc1ccc(/C=N/Nc2ccc(C(F)(F)F)cn2)cc1", "28.9 µM (active)"),
    ("CSc1nc(S)c2[nH]c(S)nc2n1", "32.7 µM (active)"),
    ("CCOc1cc(/C=C2\\C(=O)ON=C2c2ccccc2)cc(Br)c1O", "61.2 µM (active)"),
    ("COc1ccc(CN2CCN(Cc3ccccc3F)CC2)c(OC)c1", "70.3 µM (active)"),
    ("CCOc1ccc(C2NC(=O)C(C#N)=C(S)N2c2ccc(OC)cc2)cc1OC (stereo not drawn)", "134 µM (active)"),
    ("O=C(Nc1ccccc1C(=O)N/N=C/c1ccc(O)cc1)c1ccccc1", "220 µM (active)"),
    ("CCOC(=O)CCNC(C)C1COc2ccccc2O1 (stereo not drawn)", "178 µM (active)"),
    ("CC(C)(C)CC(=O)Nc1ccc(Nc2ccccc2)cc1", "88.6 µM (active)"),
]

====

As shown below, each of these compounds has a reported EC50 value.
molecular target: Luciferin 4-monooxygenase (Photinus pyralis, UniProt P08659); assay: inhibition of purified Photinus pyralis luciferase – biochemical, luminescence, dose response (AID 1891)
Sequence (P08659 whole entry): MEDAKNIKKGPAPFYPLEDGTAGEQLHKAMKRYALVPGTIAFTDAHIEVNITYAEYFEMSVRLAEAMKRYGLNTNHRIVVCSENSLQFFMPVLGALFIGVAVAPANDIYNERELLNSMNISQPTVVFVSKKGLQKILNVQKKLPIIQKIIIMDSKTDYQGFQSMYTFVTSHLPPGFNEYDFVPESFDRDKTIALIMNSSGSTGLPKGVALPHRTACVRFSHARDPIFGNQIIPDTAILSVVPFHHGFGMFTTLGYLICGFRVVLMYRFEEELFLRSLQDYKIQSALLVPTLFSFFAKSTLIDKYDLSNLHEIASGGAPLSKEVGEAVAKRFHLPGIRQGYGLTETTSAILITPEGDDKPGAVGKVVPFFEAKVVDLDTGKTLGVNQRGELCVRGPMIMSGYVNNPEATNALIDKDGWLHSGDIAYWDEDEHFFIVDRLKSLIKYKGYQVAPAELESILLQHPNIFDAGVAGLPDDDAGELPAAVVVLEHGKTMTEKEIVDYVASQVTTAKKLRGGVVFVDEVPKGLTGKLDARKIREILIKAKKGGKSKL
Activity calls are given as the source filed them.

# Structure string, EC50
measured = [
    ("O=[N+]([O-])c1c(Nc2ccccn2)cc(Cl)c2nonc12", "> 112 µM (not active)"),
    ("O=[N+]([O-])c1c(Nc2cccc(O)c2)cc(Cl)c2nonc12", "> 112 µM (not active)"),
    ("COc1ccc(S(=O)(=O)N2CCN(Cc3ccc4c(c3)OCO4)CC2)c2ccccc12", "> 112 µM (not active)"),
    ("N=C(NOC(=O)c1ccccc1Cl)c1cccnc1", "23.6 µM (active)"),
    ("CC(=O)Nc1ccc(S(=O)(=O)N2CCC(C(=O)NCc3ccco3)CC2)cc1", "> 112 µM (not active)"),
    ("COc1ccc(C(=O)Nc2ccccc2C(=O)Nc2cccnc2)cc1", "1.61 µM (active)"),
    ("COc1ccccc1C(=O)Nc1nc2ccccc2[nH]1", "0.159 µM (active)"),
    ("O=C(Nc1cccc(NC(=O)c2ccccc2Cl)c1)c1ccco1", "> 112 µM (not active)"),
    ("COc1ccc(NC(=O)c2cc([N+](=O)[O-])ccc2O)cc1", "0.129 µM (active)"),
    ("Cc1cccc(NC(=O)CCCNC(=O)c2ccc(Cl)cc2)n1", "> 112 µM (not active)"),
    ("CCC(=O)Nc1nnc(SCC(=O)NCCc2ccc(OC)c(OC)c2)s1", "> 112 µM (not active)"),
    ("Cc1ccccc1NC(=O)c1cc(S(=O)(=O)N2CCOCC2)cn1C", "> 112 µM (not active)"),
    ("O=C(Nc1ccccc1C(=O)N/N=C/c1ccc(O)cc1)c1ccccc1", "0.184 µM (active)"),
    ("O=C(N/N=C/c1ccc(Cl)c([N+](=O)[O-])c1)c1cc(-c2ccc3c4c(cccc24)CC3)[nH]n1", "> 112 µM (not active)"),
    ("Brc1ccc(N=Nc2ccc3ccccc3n2)cc1", "0.299 µM (active)"),
]

====

This section presents molecules with their documented EC50 values.
Molecular target: Zinc finger protein mex-5 (Caenorhabditis elegans)
Sequence (Q9XUB2 whole entry): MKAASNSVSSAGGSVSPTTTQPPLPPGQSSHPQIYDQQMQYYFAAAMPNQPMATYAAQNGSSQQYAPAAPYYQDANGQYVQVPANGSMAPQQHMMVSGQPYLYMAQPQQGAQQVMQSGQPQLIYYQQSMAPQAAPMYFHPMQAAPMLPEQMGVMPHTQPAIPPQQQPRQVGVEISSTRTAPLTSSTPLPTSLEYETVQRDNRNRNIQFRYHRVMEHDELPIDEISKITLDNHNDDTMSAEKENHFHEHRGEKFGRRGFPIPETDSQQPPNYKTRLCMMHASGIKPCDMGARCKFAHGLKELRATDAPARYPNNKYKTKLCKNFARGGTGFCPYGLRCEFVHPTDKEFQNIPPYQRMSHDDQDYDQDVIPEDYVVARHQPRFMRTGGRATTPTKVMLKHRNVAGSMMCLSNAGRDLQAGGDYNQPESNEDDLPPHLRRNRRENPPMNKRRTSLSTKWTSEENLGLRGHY
Test: potency of MEX-5 RNA-binding blockers – biochemical, C. elegans, fluorescence polarization, dose response (AID 1960)
Calls of active or inactive are those of the source.

# Molecule, EC50
rows = [
    ("Cc1ccc2c(c1)N/C(=C\\C(=O)CC(C)C)C(=O)O2", "> 300 µM (not active)"),
    ("CC1=C(C#N)C(=O)N(C)C(=O)/C1=C\\NNc1ccc(F)cc1", "> 300 µM (not active)"),
    ("N#Cc1c(N)n(-c2cccc(C(=O)O)c2)c2nc3ccccc3nc12", "> 300 µM (not active)"),
    ("COC(=O)Cn1cc(/C=C2\\C(=O)NC(=O)N(c3ccc(OC)cc3)C2=O)c2ccccc21", "6.99 µM (active)"),
    ("CCOP(=O)(OCC)C(Nc1cccc([N+](=O)[O-])c1)c1ccccc1 (centres undefined)", "> 300 µM (not active)"),
    ("COc1cc(C(CC(=O)N2CCCC2)c2c(OC)cc(OC)c3ccc(=O)oc23)cc(OC)c1OC (centres undefined)", "16.2 µM (active)"),
    ("CSc1nc(S)c2[nH]c(S)nc2n1", "4.78 µM (active)"),
    ("NC1=CC(=O)c2cccc3cccc1c23", "1.98 µM (inconclusive)"),
    ("O=C(N/N=C/C=C/c1ccc([N+](=O)[O-])cc1)c1cccs1", "53.6 µM (active)"),
    ("N#CC1=C(N)OC2=C(C(=O)CC(c3ccco3)C2)C1c1ccc(OCc2c(F)cccc2Cl)cc1 (centres undefined)", "> 300 µM (not active)"),
    ("COC(=O)CCCC1=CC2=CC(=O)C(C)(OC(=O)C3CCCC3)C(=O)C2=CO1 (centres undefined)", "57.7 µM (inconclusive)"),
    ("CC(=O)c1c(O)cc(O)cc1CC(=O)O", "190 µM (inconclusive)"),
    ("CC1=NN(c2cccc(C(=O)O)c2)C(=O)/C1=C\\C=C\\c1ccco1", "23.7 µM (inconclusive)"),
    ("Cc1ccccc1NC(=O)CN1C(=O)S/C(=C\\c2ccc(-c3cc(C(=O)O)ccc3C)o2)C1=O", "1.68 µM (active)"),
    ("CCN(CC)c1ccc(N/C=C2\\C(=O)NC(=O)N(c3cc(OC)ccc3OC)C2=O)cc1", "> 300 µM (not active)"),
    ("CCOC(=O)c1cc(-c2ccccc2)sc1NC(=S)Nc1cc(C)ccn1", "0.77 µM (inconclusive)"),
    ("COc1ccc(/C=C2\\CCCc3c2nc2ccccc2c3C(=O)O)cc1OC", "8.26 µM (inconclusive)"),
    ("COC(=O)CNc1cccc(C(F)(F)F)c1", "> 300 µM (not active)"),
    ("COc1ccc(/C(C)=N/Nc2nc3ccccc3nc2C)cc1OC", "66.5 µM (inconclusive)"),
]

====

IC50 overview
biological target: DNA dC->dU-editing enzyme APOBEC-3G (Homo sapiens); format: functional;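 further: Dose-response counterscreen measuring inhibition of APOBEC3G DNA deaminase activity, run while confirming APOBEC3A inhibitors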
Sequence (Q9HC16 whole entry): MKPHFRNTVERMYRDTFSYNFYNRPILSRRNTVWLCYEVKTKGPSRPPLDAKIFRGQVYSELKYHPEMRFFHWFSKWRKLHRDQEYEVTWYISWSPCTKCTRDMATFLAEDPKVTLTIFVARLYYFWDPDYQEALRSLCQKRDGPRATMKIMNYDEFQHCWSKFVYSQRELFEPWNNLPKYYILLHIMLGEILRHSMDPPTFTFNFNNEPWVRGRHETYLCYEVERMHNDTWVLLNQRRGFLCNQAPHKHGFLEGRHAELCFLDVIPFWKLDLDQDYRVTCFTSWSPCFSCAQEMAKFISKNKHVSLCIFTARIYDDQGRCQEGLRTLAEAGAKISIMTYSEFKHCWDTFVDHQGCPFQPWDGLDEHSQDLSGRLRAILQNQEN
The source made the active and inactive calls.
Endpoint name: IC50

# Compound, Result
data = [
    ("COc1ccc(CCCc2nnc(SCC(=O)Nc3ccc(C)c(C)c3)o2)cc1", "3.68 µM (active)"),
    ("COc1ccc(/C=C(\\NC(=O)c2ccccc2)C(=O)OC[C@@H]2CCC[N+]3(C)CCCCC23)cc1OC (some centres not stated)", "3.58 µM (active)"),
    ("Cc1ccc(CCCOC(=O)C[N+]2(C)CCCCC2)cc1", "2.58 µM (active)"),
    ("O=C(COC(=O)/C=C/c1ccco1)Nc1ncc(C(F)(F)F)cc1Cl", "29.9 µM (active)"),
    ("Cc1ccc(S(=O)(=O)N(CC(=O)O)Cc2ccco2)cc1", "28.4 µM (active)"),
    ("CCOc1ccc(NC(=O)c2cc3ccccc3cc2O)cc1", "47.5 µM (active)"),
    ("O=[N+]([O-])c1ccc(C[n+]2cccc3ccccc32)cc1", "5.45 µM (active)"),
]
